Test system: RXF 393 renal
Assay: NCI tumour cell line growth inhibition, 48 h
Could you please report measured TGI for the items listed next?
One number for each entry, in µM.

molecule	unit	TGI
COC(=O)C1(Cc2ccccc2)Cc2cc3c(cc2C1)CCC3	µM	50.7
CCN(CC)c1ccc(C2=NN(C(C)=O)C(c3cc(OC)c(OC)c(OC)c3)C2)cc1 (centres undefined)	µM	2.43
CCCCCCCCCCOC1C(C(O)CNCCCN(C)C)OC2OC3(CCCCC3)OC21 (centres undefined)	µM	3.7
CCCCCCCCCCCCCCCCSC(=NCC)NCC	µM	3.47
O=C(NCc1ccccc1)c1cc2ccccc2oc1=Nc1ccccc1F	µM	84.5

# batch size: 4; output TGI per entry
1. CCN(Cc1ccccc1F)c1ccc(CO)c(Cl)c1
2. COc1oc(C(=O)NC2CCCCC2)c(-c2ccc(Cl)cc2)c1S(=O)(=O)c1ccccc1
3. CCCCCCCCCc1c(Cl)nc(Cl)nc1Cl
4. CCOC(=O)C1=C(C)N=C2SC=C(c3ccccc3)N2[C@H]1c1cn[nH]c1-c1ccc(Cl)cc1

24.8
9.76
32.3
19.1

# batch size: 7; output TGI per entry
1. Nc1ncc(-c2ccc3ncnc(N4CCc5ccc(Cl)cc54)c3c2)cn1
2. COc1ccc([As]=[As]c2ccc(OC)c(NCS(=O)(=O)O)c2)cc1NCS(=O)(=O)O (centres undefined)
3. CCOc1ccc(Nc2nc(C)c(C(=O)/C=C/c3ccc(Cl)cc3Cl)s2)cc1
4. COc1ccc(OC)c(C(=O)c2cccc(C(=O)c3cc(OC)ccc3OC)n2)c1
5. CCCCCNC(=O)c1cc2cc(CCl)ccc2oc1=O
6. O=C1c2ccccc2C(=O)c2c(Nc3ccc(CCO)cc3)ccc(O)c21
7. O=C(c1ccccc1)C(c1ccccc1)C1(O)C(=O)Nc2c(Cl)ccc(Cl)c21 (centres undefined)

[3, 3.09, 40.6, 43.4, 1.78, 23.7, 33.8]

# batch size: 2; output TGI per entry
1. O=C(c1ccccc1)c1c(C(F)(F)F)n([O-])c2ccc(F)cc2[n+]1=O
2. CC(C)Cc1ccc(C(C)C(=O)NCc2ccc(Cn3c(=O)sn(CCCCl)c3=O)cc2)cc1 (centres undefined)

1. 1.45
2. 2.41

* * *

Tested on: SK-MEL-5 melanoma
Assay: NCI tumour cell line growth inhibition, 48 h
experimental_endpoint: TGI

compound	TGI
O=C(O)CN(CCN(CC(=O)O)CC(=O)O)CC(=O)O	> 100 µM

# batch size: 3; output TGI per entry
1. COP(=O)(CC(=O)C1OC(C)(C)OC1C(O)COCc1ccccc1)OC (stereo unspecified)
2. COc1cc2cc(c1Cl)N(C)C(=O)C[C@H](OC(=O)[C@H](C)N(C)C(=O)CCS)C[C@]1(C)O[C@H]1[C@H](C)[C@@H]1C[C@@](O)(NC(=O)O1)[C@H](OC)/C=C/C=C(\C)C2
3. Cc1cc(S(=O)(=O)O)ccc1N=Nc1c(O)ccc2ccccc12

> 100 µM
0.0628 µM
> 100 µM

# batch size: 7; output TGI per entry
1. COc1cc(/C=C2\CN(S(=O)(=O)c3ccc(C)cc3)C/C(=C\c3cc(CN4CCOCC4)c(O)c(OC)c3)C2=O)cc(CN2CCOCC2)c1O
2. Cc1ccc(C(=Nc2ccccc2)N=P(c2ccccc2)(c2ccccc2)c2ccccc2)cc1
3. O=C(O)CCc1ccc(-c2ccccc2)[nH]1
4. CC1(c2ccccc2)N=C(C(N)=O)c2[nH]cnc2N1 (stereo unspecified)
5. COc1cc(/C=C2\CCc3ccccc3C2=O)ccc1O
6. CCOC(=O)/C(=N/Nc1ccc(C)cc1)N1C(=S)C=C(C)NN(C)C1=S
7. O=C(Nc1ccc(F)cc1)C(=O)C(C(=O)c1ccccc1F)C1OC(=O)c2ccccc21 (stereo unspecified)

1: > 100 µM; 2: 1.93 µM; 3: > 100 µM; 4: > 100 µM; 5: 35.3 µM; 6: > 100 µM; 7: > 100 µM

# batch size: 6; output TGI per entry
1. C[C@H](NC1=CC(=O)C(N[C@@H](C)[C@H](O)c2ccccc2)=CC1=O)[C@H](O)c1ccccc1
2. CC(C)=Cc1cc2c(cc1O)CCC1C2CC[C@@]2(C)C1CC[C@@H]2O (stereo partly specified)
3. O=C(c1ccccc1)C(c1ccccc1)C1(O)C(=O)Nc2c(Cl)ccc(Cl)c21 (stereo unspecified)
4. N#CC1(Cc2ccccc2)CCCCN1C(=O)c1ccccc1 (stereo unspecified)
5. O=c1cnnc2sc(=S)[nH]n12
6. O=C(O)CCn1cnc2c(=S)nc[nH]c21

1: > 100 µM; 2: 19.3 µM; 3: 34.1 µM; 4: > 100 µM; 5: 57.9 µM; 6: > 100 µM

* * *

Could you please report measured TGI for the items listed next?
System: UACC-257 melanoma
Assay: NCI tumour cell line growth inhibition, 48 h

// worked examples, TGI included
compound	study_system	TGI
O=C1/C(=C/c2ccc(O)c(CN3CCCCC3)c2)CCC/C1=C\c1ccc(O)c(CN2CCCCC2)c1	UACC-257 melanoma	23.9 µM
O=C(Cc1csc2nc(-c3ccc(Br)cc3)cn12)N/N=C/c1ccccc1	UACC-257 melanoma	32 µM
CC(=O)N/N=C1/NN(C(C)=O)C2(S1)C(=O)Nc1ccc(C)cc12 (stereo unspecified)	UACC-257 melanoma	> 100 µM
C(=Nc1ccccc1C1SCCCS1)c1ccccc1	UACC-257 melanoma	> 100 µM
CC(C)=CCC/C(C)=C/CCC(C(=O)COCc1ccccc1)P1(=O)OC(C)(C)CN1C(C)(C)C (stereo unspecified)	UACC-257 melanoma	> 100 µM

# batch size: 4; output TGI per entry
1. CN(C)c1ccc(C(C#N)NNC(=O)Cc2ccccc2)cc1 (stereo unspecified)
2. O=C(c1ccccc1)c1c(C(F)(F)F)n([O-])c2ccc(F)cc2[n+]1=O
3. O=C1CSC(c2cccc([N+](=O)[O-])c2)N1c1ccc(-c2ccc(-n3c(-c4ccccc4)nc4ccccc4c3=O)cc2)cc1 (stereo unspecified)
4. COc1cc(Nc2c(C#N)[n+]([O-])c3ccccc3[n+]2[O-])cc(OC)c1OC

1: > 100 µM; 2: 3.23 µM; 3: > 100 µM; 4: 67.2 µM

# batch size: 5; output TGI per entry
1. CC(=O)Nc1nc2ncc(C=O)nc2c(=O)[nH]1
2. S=c1sc2c(s1)SCc1cccc(n1)CSc1sc(=S)sc1SCc1cccc(n1)CS2
3. CCCCN(CCCC)CC(C(=O)Nc1ccccc1)/C(C)=N\NC(=O)c1ccncc1 (stereo unspecified)
4. Cc1ccc(C(=Nc2ccccc2)N=P(c2ccccc2)(c2ccccc2)c2ccccc2)cc1
5. CC=C(CBr)CCC(Br)C(C)(C)Cl (mixture of isomers)

1: > 100 µM; 2: > 100 µM; 3: > 100 µM; 4: 3.74 µM; 5: > 10 µM

# batch size: 6; output TGI per entry
1. NC(=Nc1ccc(S(=O)(=O)Nc2cnc3ccccc3n2)cc1)/N=C(/N)Nc1ccc(Br)cc1
2. COc1ccc(OC)c(C(=O)c2cccc(C(=O)c3cc(OC)ccc3OC)n2)c1
3. O=C(OCc1ccccc1)N1N=NC2C1C1CC(OCc3ccccc3)(OCc3ccccc3)C2O1 (stereo unspecified)
4. Cc1ccc(S(=O)(=O)n2cc(/C=C/C#N)c(/C=C/C#N)c2)cc1
5. CC(=O)NNc1nc(C)c(C(=O)NNC(=O)C(=O)Nc2c(C)cccc2C(C)C)s1
6. COC(=O)C1CC(C(=O)OC)c2nc3cc([N+](=O)[O-])ccc3nc21 (stereo unspecified)

> 100 µM
> 100 µM
> 100 µM
> 100 µM
> 100 µM
> 100 µM

# batch size: 6; output TGI per entry
1. CN(C)CCCNC(=O)c1c(-c2cccnc2)cnc2ccccc12
2. CN[C@H](C)[C@@H](OC)c1ccccc1
3. O=C(CNC(=O)c1ccccc1)Oc1c(Cl)c(Cl)c(Cl)c(Cl)c1Cl
4. CCOc1ccccc1N1CSc2nnc(-c3ccccc3)n2C1
5. Clc1ccc(C2=Nc3ccccc3SC(c3cccs3)C2)cc1 (stereo unspecified)
6. Cc1[nH]c(-c2ccccc2)c(O)c1C(=O)OC12CC3CC(CC(C3)C1)C2

1: > 100 µM; 2: > 100 µM; 3: 54.9 µM; 4: > 100 µM; 5: 29.4 µM; 6: 31.2 µM

# batch size: 5; output TGI per entry
1. CN(C)c1ccc(/C=C2\C[C@H]3[C@@H]4CCc5cc(OCCN6CCCC6)ccc5[C@H]4CC[C@]3(C)[C@H]2O)cc1
2. Cc1nc2ccc(Nc3nc(Cl)nc(Nc4ccc(F)cc4)n3)cc2n1Cc1ccccc1
3. C=C1C(=O)OC2C1C(=O)C/C(C)=C/CCC1(C)OC21 (stereo unspecified)
4. CC[C@]1(O)CC2CN(CCCc3c([nH]c4ccccc34)[C@@](C(=O)OC)(c3cc4c(cc3OC)N(C)C3C45CCN4CC=C[C@](CC)(C45)C(OC(C)=O)[C@@]3(O)C(=O)OC)C2)C1 (stereo partly specified)
5. COc1ccc(/C=N/Nc2nc(-c3cc4oc(=O)n(C)c4cc3Cl)cs2)cc1OC

19.5 µM
28.9 µM
41.3 µM
> 10 µM
> 100 µM
